Recorded DC50 by entry
Test target: HiBit-BRM fusion protein (Homo sapiens, UniProt P51531)
Construct: expressed in transfected cells
Sequence (P51531 whole entry, the tested form may be a part): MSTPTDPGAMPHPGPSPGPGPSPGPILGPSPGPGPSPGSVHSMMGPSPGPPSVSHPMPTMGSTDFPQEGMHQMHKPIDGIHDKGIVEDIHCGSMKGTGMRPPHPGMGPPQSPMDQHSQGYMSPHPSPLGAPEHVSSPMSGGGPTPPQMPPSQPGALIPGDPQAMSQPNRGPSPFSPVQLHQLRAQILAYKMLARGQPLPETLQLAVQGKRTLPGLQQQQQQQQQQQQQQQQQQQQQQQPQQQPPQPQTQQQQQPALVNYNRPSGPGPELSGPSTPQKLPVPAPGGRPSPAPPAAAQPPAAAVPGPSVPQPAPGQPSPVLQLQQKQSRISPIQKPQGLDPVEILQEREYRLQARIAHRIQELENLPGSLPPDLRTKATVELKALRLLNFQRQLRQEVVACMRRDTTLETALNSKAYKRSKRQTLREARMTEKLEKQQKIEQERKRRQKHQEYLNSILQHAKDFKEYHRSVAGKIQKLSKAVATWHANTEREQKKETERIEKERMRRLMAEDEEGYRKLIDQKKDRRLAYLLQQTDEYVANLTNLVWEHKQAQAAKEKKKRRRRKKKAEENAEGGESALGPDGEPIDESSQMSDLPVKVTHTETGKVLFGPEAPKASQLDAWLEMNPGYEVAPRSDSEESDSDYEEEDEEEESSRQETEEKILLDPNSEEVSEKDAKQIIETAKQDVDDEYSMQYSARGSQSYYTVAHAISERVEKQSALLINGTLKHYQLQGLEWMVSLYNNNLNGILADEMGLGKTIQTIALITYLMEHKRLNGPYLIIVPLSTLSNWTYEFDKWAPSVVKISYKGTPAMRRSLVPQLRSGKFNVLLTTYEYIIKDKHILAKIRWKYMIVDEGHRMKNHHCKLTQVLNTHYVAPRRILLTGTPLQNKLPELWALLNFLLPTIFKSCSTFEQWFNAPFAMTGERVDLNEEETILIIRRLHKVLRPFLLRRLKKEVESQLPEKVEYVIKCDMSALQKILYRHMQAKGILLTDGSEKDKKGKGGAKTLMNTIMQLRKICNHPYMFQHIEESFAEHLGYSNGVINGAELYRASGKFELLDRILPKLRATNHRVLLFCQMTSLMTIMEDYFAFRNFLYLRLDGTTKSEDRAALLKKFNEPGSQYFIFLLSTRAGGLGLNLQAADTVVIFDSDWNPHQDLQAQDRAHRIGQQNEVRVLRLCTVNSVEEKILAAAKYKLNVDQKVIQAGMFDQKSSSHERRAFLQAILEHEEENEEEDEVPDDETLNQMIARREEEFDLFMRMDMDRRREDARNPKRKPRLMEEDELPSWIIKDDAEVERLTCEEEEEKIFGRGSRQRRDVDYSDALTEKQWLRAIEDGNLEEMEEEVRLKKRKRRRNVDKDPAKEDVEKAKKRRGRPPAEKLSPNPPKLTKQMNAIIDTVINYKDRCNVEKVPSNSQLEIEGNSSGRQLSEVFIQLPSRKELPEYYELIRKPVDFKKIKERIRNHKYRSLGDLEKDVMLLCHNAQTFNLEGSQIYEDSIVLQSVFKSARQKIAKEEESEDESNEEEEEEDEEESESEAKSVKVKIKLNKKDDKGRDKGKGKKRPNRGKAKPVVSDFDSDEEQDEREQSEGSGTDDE
Experiment notes: HiBiT-BRM cell-based degradation assay (Nano-Glo HiBiT Lytic Detection, 24 h)
Experimental conditions: HeLa cells expressing HiBiT-BRM, read-out: BRM HiBit Degradation IC50
Metric: DC50

Compound	Measured result
CS(=O)(=O)n1ccc(C(=O)NCC(=O)Nc2nc(-c3cccc(-c4ccnc(C5(C(=O)N6CCN(CC7CCN(c8ccc9c(c8)C(=O)N(C8CCC(=O)NC8=O)C9=O)CC7)CC6)CC5)c4)c3)cs2)c1 (centres unmarked) [Compound 134]	100 to 1000 nM
CS(=O)(=O)n1ccc(C(=O)NCC(=O)Nc2nc(-c3cccc(-c4ccnc(C5(C(=O)NCCOCCOCCNC(=O)COc6cccc7c6C(=O)N(C6CCC(=O)NC6=O)C7=O)CC5)c4)c3)cs2)c1 (centres unmarked) [Compound 128]	> 10000 nM
CS(=O)(=O)n1ccc(C(=O)NCC(=O)Nc2nc(-c3cccc(-c4ccnc(OCCNC(=O)CCCOc5cccc6c5C(=O)N(C5CCC(=O)NC5=O)C6=O)c4)c3)cs2)c1 (centres unmarked) [Compound 36]	> 10000 nM
CS(=O)(=O)n1ccc(C(=O)NCC(=O)Nc2nc(-c3cccc(-c4ccnc(C5(C(=O)N6CCN(CCCOc7ccc8c(c7)C(=O)N(C7CCC(=O)NC7=O)C8=O)CC6)CC5)c4)c3)cs2)c1 (centres unmarked) [Compound 135]	100 to 1000 nM
CS(=O)(=O)n1ccc(C(=O)N[C@@H](COCc2ccc(CNC(=O)CCCCCCCCCCNc3cccc4c3C(=O)N(C3CCC(=O)NC3=O)C4=O)cc2)C(=O)Nc2nc(-c3ccccc3)cs2)c1 (some centres unmarked) [Compound 214]	100 to 1000 nM

###

Each entry below lists one item and its recorded DC50 value.
Test target: HiBit-BRG1 fusion protein (Homo sapiens)
Construct: expressed in transfected cells
Sequence (P51532 whole entry, the tested form may be a part): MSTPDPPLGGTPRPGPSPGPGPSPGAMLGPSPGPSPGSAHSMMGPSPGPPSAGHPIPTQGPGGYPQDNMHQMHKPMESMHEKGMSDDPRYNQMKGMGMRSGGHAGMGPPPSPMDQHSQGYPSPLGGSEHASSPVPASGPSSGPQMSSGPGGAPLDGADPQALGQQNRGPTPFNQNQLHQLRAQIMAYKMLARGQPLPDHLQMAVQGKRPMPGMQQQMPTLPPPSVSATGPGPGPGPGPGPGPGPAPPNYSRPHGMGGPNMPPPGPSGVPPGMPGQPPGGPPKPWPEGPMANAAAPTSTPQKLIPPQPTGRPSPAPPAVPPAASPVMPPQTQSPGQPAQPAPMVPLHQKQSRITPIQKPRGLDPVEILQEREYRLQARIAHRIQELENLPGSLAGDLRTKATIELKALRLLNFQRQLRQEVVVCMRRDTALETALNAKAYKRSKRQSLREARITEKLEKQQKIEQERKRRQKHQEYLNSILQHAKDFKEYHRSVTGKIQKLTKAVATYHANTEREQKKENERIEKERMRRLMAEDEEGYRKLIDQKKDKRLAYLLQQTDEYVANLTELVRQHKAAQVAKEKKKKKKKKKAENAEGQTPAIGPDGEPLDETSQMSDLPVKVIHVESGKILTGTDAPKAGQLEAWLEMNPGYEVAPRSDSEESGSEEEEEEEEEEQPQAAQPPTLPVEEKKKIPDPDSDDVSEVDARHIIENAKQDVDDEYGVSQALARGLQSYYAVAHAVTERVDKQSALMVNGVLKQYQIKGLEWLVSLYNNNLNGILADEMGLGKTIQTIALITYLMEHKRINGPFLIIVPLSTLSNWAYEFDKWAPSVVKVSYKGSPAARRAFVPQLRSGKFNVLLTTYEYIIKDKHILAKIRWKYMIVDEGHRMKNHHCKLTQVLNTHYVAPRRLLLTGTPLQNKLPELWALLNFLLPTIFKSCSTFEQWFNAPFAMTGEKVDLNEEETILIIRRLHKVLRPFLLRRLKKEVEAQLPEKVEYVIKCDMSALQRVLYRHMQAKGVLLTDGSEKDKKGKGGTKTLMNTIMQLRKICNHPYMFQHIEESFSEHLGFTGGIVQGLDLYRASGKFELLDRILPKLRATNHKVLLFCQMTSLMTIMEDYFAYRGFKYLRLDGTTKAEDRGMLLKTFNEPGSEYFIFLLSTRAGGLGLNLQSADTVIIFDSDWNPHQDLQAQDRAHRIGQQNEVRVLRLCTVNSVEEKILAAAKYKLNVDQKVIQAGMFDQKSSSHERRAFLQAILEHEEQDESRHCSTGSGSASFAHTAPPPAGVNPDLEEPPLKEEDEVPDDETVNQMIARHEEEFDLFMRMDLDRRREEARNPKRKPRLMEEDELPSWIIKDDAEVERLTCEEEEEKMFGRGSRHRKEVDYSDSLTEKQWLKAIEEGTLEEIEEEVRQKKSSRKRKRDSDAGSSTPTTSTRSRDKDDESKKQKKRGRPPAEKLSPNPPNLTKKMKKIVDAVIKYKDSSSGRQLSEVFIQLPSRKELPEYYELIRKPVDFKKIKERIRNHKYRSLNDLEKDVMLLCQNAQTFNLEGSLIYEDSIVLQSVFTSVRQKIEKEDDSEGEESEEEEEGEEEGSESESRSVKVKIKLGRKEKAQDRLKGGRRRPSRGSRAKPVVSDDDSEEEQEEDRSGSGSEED
Experiment notes: HiBiT-BRG1 cell-based degradation assay (Nano-Glo HiBiT Lytic Detection, 24 h)
Experimental conditions: HeLa cells expressing HiBit-BRG1 and LgBit, read-out: BRG1 HiBit Degradation IC50

Molecule	DC50
Cc1c(C(=O)NCC(=O)Nc2nc(-c3cccc(-c4ccnc(N(C)CC(=O)NCCOCCOCCNc5cccc6c5C(=O)N(C5CCC(=O)NC5=O)C6=O)c4)c3)cs2)cn(S(=O)(=O)C(C)C)c1C (stereo not shown) [Compound 90]	> 10 µM
Cc1ncsc1-c1ccc(CNC(=O)[C@@H]2C[C@@H](O)CN2C(=O)[C@@H](NC(=O)CCCC(=O)NCc2cccc(-c3cccc(-c4csc(NC(=O)CNC(=O)c5ccn(S(C)(=O)=O)c5)n4)c3)c2)C(C)(C)C)cc1 [Compound 56]	> 10 µM
CS(=O)(=O)n1ccc(C(=O)NCC(=O)Nc2nc(-c3cccc(-c4ccnc(C5(C(=O)N6CC(Oc7ccc8c(c7)C(=O)N(C7CCC(=O)NC7=O)C8=O)C6)CC5)c4)c3)cs2)c1 (stereo not shown) [Compound 141]	> 10 µM
CS(=O)(=O)n1ccc(C(=O)N[C@@H](COCc2ccc(CNC(=O)C3CCN(CCOc4ccc5c(c4)C(=O)N(C4CCC(=O)NC4=O)C5=O)CC3)cc2)C(=O)Nc2nc(-c3ccccc3)cs2)c1 (stereo partly shown) [Compound 216, formic acid]	0.1 to 1 µM
CS(=O)(=O)n1ccc(C(=O)N[C@@H](CCOCCCC(=O)N2CC(COc3ccc4c(c3)C(=O)N(C3CCC(=O)NC3=O)C4=O)C2)C(=O)Nc2nc(-c3ccccc3)cs2)c1 (stereo partly shown) [Compound 260]	> 10 µM
CS(=O)(=O)n1ccc(C(=O)N[C@@H](CCOCCCC(=O)NCCS(=O)(=O)CCNc2cccc3c2C(=O)N(C2CCC(=O)NC2=O)C3=O)C(=O)Nc2nc(-c3ccccc3)cs2)c1 (stereo partly shown) [Compound 253]	> 10 µM
CS(=O)(=O)n1ccc(C(=O)NCC(=O)Nc2nc(-c3cccc(-c4ccnc(C5(C(=O)N6CCC(C7CCN(C(=O)COc8cccc9c8C(=O)N(C8CCC(=O)NC8=O)C9=O)CC7)CC6)CC5)c4)c3)cs2)c1 (stereo not shown) [Compound 14]	> 10 µM
CS(=O)(=O)n1ccc(C(=O)NCC(=O)Nc2nc(-c3cccc(-c4ccnc(C5(C(=O)NCCOc6ccc7c(c6)C(=O)N(C6CCC(=O)NC6=O)C7=O)CC5)c4)c3)cs2)c1 (stereo not shown) [Compound 161]	0.1 to 1 µM
CS(=O)(=O)n1ccc(C(=O)N[C@@H](CCOCCCC(=O)NCCCCCCNc2ccc3c(c2)C(=O)N(C2CCC(=O)NC2=O)C3=O)C(=O)Nc2nc(-c3ccccc3)cs2)c1 (stereo partly shown) [Compound 283]	> 10 µM
CS(=O)(=O)n1ccc(C(=O)NCC(=O)Nc2nc(-c3cccc(-c4ccnc(C5(C(=O)N6CC(COc7ccc8c(c7)C(=O)N(C7CCC(=O)NC7=O)C8=O)C6)CC5)c4)c3)cs2)c1 (stereo not shown) [Compound 107]	> 10 µM
